The origin of these recorded values is the supplement of paper PMC10567573.

B1: PTPRD (parent)
chain: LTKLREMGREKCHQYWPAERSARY

Variants of: B1
EXPERIMENT_NOTES: protein stability index of a GFP-peptide fusion (GPS, HEK-293T) (PSI 1-6); higher = more stable;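 further: lentivirally expressed fusions sorted by FACS into six bins by GFP to DsRed ratio, PSI derived from sequencing read proportions per bin multiplied by bin number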
STATED_CONDITIONS: c terminus: a fixed tail appended
# protein stability index annotations
Please state the value as a number alone, without comment.

Please review the entries below; each comes with its answer.
LTKLREMGMEKCHQYWPAERSARY [R9M]: 2.8
LTKLREMGREKCLQYWPAERSARY [H13L]: 2.77
LTKLREMRREKCHQYWPAERSARY [G8R]: 2.53
LTKLREMGREKCHQYWKAERSARY [P17K]: 2.58
LTKLWEMGREKCHQYWPAERSARY [R5W]: 2.24

Read the next record carefully.
Would you kindly share the measured protein stability index for LTKLREMGREKCCQYWPAERSARY [H13C] ? 1.86
